target: N(G),N(G)-dimethylarginine dimethylaminohydrolase 1 (Homo sapiens)
Sequence (O94760 whole entry): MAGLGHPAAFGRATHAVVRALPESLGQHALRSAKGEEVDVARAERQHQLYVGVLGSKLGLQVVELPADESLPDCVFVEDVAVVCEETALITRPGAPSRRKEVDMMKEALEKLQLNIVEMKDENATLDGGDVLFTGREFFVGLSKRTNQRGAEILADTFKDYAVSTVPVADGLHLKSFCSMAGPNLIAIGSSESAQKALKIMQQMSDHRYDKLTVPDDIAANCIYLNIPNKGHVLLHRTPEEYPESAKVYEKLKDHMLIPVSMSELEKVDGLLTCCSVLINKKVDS
assay: Inhibition of human recombinant His6-tagged DDAH1 expressed in Escherichia coli BL21(DE3) using Nomega,Nomega-dimethyl-L-arginine as substrate at 400 uM incubated for 10 to 20 mins prior to substrate addition measured after 1 to 2 hrs by colorimetric ureido derivitization assay in presence of 2 mM reduced glutathione
readout-type: inhibition (%)
Express your answer in %, writing the number without its unit.

Use the examples below as a reference point.
NCCSc1nc2ccccc2o1	23
CCc1nc2ccccc2[nH]1	25
Cc1cc(Br)ccn1	95

Proceeding to the next molecule to report its inhibition.
Return reported inhibition. Input molecule: "OCc1cc(Cl)ccn1"
46
